# TEST NAME: Conversion (release) of prodrug salts to parent compound in mouse plasma
# Type: in vitro ADME
# TEST PARAMETERS: mouse, plasma, 37 °C, 1 h, read-out: Release rate (conversion to Compound 1)
Cut-off 7% on metabolised at 1 h, inclusive. At or above means class 1; below means class 0.

>>> df
                                   compound  qualitative_label
0  C[C@@]12CC[C@@H]3[C@H](OC(=O)[C@H]3CN3CCNCC3)[C@@H]3[C@]1(CC[C@@]3(C)O)C2 [Compound 26]            class 1
1  C[C@@]12CC[C@@H]3[C@H](OC(=O)[C@H]3CN3CCC4(CCCC4)CC3)[C@@H]3[C@]1(CC[C@@]3(C)O)C2 [Compound 34]            class 1
2  C[C@@]12CC[C@@H]3[C@H](OC(=O)[C@H]3CN3CC4CCCC4C3)[C@@H]3[C@]1(CC[C@@]3(C)O)C2 (stereo partly shown) [Compound 32]            class 0
3  C[C@@]12CC[C@@H]3[C@H](OC(=O)[C@H]3CN3CCC(N4CCOCC4)CC3)[C@@H]3[C@]1(CC[C@@]3(C)O)C2 [Compound 36]            class 0

###

# TEST NAME: Conversion (release) of prodrug salts to parent compound in HEPES buffer pH 7.4
# Format: in vitro ADME
# TEST PARAMETERS: HEPES pH 7.4, 37 °C, 2 h; 120 min
Recorded measurements of Release rate (conversion to Compound 1), one per entry
QUANTITY: Release rate (conversion to Compound 1) (%)

>>> df
                                   compound  measured_result
0  CN(C)C[C@@H]1C(=O)O[C@H]2[C@H]1CC[C@@]1(C)C[C@]13CC[C@@](C)(O)[C@H]23 [Compound 41]             16.2
1  CN(C)C[C@@H]1C(=O)O[C@H]2[C@H]1CC[C@@]1(C)C[C@]13CC[C@@](C)(O)[C@H]23 [Compound 20]             13.8
2  CN(C)C[C@@H]1C(=O)O[C@H]2[C@H]1CC[C@@]1(C)C[C@]13CC[C@@](C)(O)[C@H]23 [Compound 42]             15.0
3  CN(C)C[C@@H]1C(=O)O[C@H]2[C@H]1CC[C@@]1(C)C[C@]13CC[C@@](C)(O)[C@H]23 [Compound 21]             10.2
4  CN(C)C[C@@H]1C(=O)O[C@H]2[C@H]1CC[C@@]1(C)C[C@]13CC[C@@](C)(O)[C@H]23 [Compound 40]             14.6

###

# Test system: T cells / MDSCs
# TEST NAME: Promotion of T cell proliferation in a co-culture model of MDSCs and T cells
# Assay type: cell-based, mouse
# TEST PARAMETERS: Mus musculus, T-cell, 12 h, read-out: T-cell proliferation rate (%), 1 μM, MDSCs treated 12 hours, co-culture of MDSCs and T cells, compared to the control group
activation at 1 µM: recorded values
QUANTITY: activation at 1 µM

>>> df
                                   molecule  measured_result
0  C=C1C(=O)O[C@H]2[C@H]1CCC(C)=C1CC[C@@](C)(OC(=O)NC3CC3)[C@@H]12 [Compound 70]         0 to 20%
1  C=C1C(=O)O[C@H]2[C@H]1CCC(C)=C1CC[C@@](C)(OC(=O)NC(CC)CC)[C@@H]12 [Compound 69]        20 to 40%
2  C=C1C(=O)O[C@H]2[C@H]1CCC(C)=C1CC[C@@](C)(OC(=O)NCCCN3CCOCC3)[C@@H]12 [Compound 92]        20 to 40%
3  C=C1C(=O)O[C@H]2[C@H]1CCC(C)=C1CC[C@@](C)(OC(=O)NC(C)C)[C@@H]12 [Compound 68]         0 to 20%
4  CC(C)(C)OC(=O)N1CCN(C[C@@H]2C(=O)O[C@H]3[C@H]2CC[C@@]2(C)C[C@]24CC[C@@](C)(O)[C@H]34)CC1 [Compound 44]         0 to 20%
5  C=C1C(=O)O[C@H]2[C@H]1CCC(C)=C1CC[C@@](C)(OC(=O)NCCCC)[C@@H]12 [Compound 67]        20 to 40%
6  CC1=C2[C@H]3OC(=O)[C@@H](CN(C)C)[C@@H]3CC[C@@]3(C)C[C@@]23CC1 [Compound 62]         0 to 20%
